Ref: the domain aggregation screens of Martell et al. (2025)

assay_procedure: soluble fraction after stress (log2 fold change); higher = more stays soluble; pooled small domains, quantitative proteomics
condition_context: stress: 50 degC
sequences and their reported soluble fraction (log2)

>  <ordered_residues>
HMIPDPPALGSNLHRERRRQQLSLDALAAASGVSKAMLSQIEADKVNPTIATMWKIAHALNIDFETLLRGE

>  <soluble fraction (log2)>
-0.283

$$$$
>  <ordered_residues>
HMSGLVPAIGTKGEEGYIRESDIPGSNVKNPEEALAYMEWLKTQPSELLIPLYDEQGNVIGQFAVS

>  <soluble fraction (log2)>
0.07

$$$$
>  <ordered_residues>
HMLTSIDQMLKLAMPDSDITVSKMNGLILLTGTVKAPEDAAEAERLVQAFSAPPPGQPPVTVVSRLRTA

>  <soluble fraction (log2)>
0.0549

$$$$
>  <ordered_residues>
HMIPENKRVLISLTYIYGIGKKISQDILEKANIDSSIKTSQLTDDDVARIRQLIENDYLVEGELRV

>  <soluble fraction (log2)>
0.0489

$$$$

###

assay_procedure: soluble fraction after stress (log2 fold change); higher = more stays soluble; pooled small domains, quantitative proteomics
condition_context: stress: 50 degC
Everything with soluble fraction (log2) lower than 0.004 is NOT MET; everything else, including exactly 0.004, is MET.

>  <ordered_residues>
HMLLTEETLPQLKQIVDEFPYFQIARMLYLKNLAVLNDIRFSVELKKMSIYVPDRRKLFTLIEGE

>  <class_label>
MET

$$$$
>  <ordered_residues>
HMSVSTGTITGSVVNLREEPNTSSKVLDKLPKDTVVYVLSASGEWYNVSYGDKTGWVYGEYLA

>  <class_label>
NOT MET

$$$$
>  <ordered_residues>
HMEGEVVESPLVGVAYLASGPDKPAFVQVGDSVSKGQTLLIIEAMKVMNEVPAPRDGIVTEILV

>  <class_label>
MET

$$$$
>  <ordered_residues>
HMGVGVKSTEVDYQRTSSGSDIPTDDAAWTKTIPAVKVNTFLWTRTKINYTDGTSAIFYSVGY

>  <class_label>
NOT MET

$$$$
>  <ordered_residues>
HMTSGPAWPALSAQQRSVLAPLQRDWHTIDAARKAKWLEVAARFPSMPAEERQRVQERMAEWA

>  <class_label>
NOT MET

$$$$
>  <ordered_residues>
HMQSEESTHIGERMLNQALRAMHVEPSAVKEKQWEKLIRDYSVKNKQDILTDIGLGKRQSVMVAHQLLAI

>  <class_label>
MET

$$$$
>  <ordered_residues>
HMLKDKLSDKDFDFYKNKIQIQLQGNPTELKELVRRFSSTEEQQILKTIDYMLDNGFLRIDEDNMIYWK

>  <class_label>
NOT MET

$$$$
>  <ordered_residues>
HMPTELVYTVPASAEGLRLDHFLVQHVPHMTRALATELTGAGGVRVNGRRAKKGDRLPSGAEVRLER

>  <class_label>
MET

$$$$

###

List of soluble fraction (log2) values.
assay_procedure: soluble fraction after stress (log2 fold change); higher = more stays soluble; pooled small domains, quantitative proteomics
condition_context: stress: 50 degC

>  <ordered_residues>
HMQSHIVPDVKSQHIAQAKALLESKQMKAVVIDSNFVKGLPAGIVLDQTPIGGARVKENRTIYLTINTL

>  <soluble fraction (log2)>
-0.557

$$$$
>  <ordered_residues>
HMNNVDQLIEQYKTLPGGLLPLLHAIKHALGYIPESTVGSIAKGFNLSRAEVHGVISFYHDFNTQP

>  <soluble fraction (log2)>
0.0707

$$$$
>  <ordered_residues>
HMRKSLGEIVFDRMERAIKSGAYSPDERLPTELDLAAEFEVSRPVIRDALKRLRERGLIYSRQGAGSFVRA

>  <soluble fraction (log2)>
-0.499

$$$$
>  <ordered_residues>
HMKLRKINLIGIFGSKTAPSALVRLTNGRVLKVGLGELLDGGRVTAIGRSSLTYNKSGKSITLNMPI

>  <soluble fraction (log2)>
-2.73

$$$$
>  <ordered_residues>
HMEFTKSPLDEIAGVGPARKRALLAAFGTAKAVSQAALADLEKTPGVNAATARLVYAHFHEK

>  <soluble fraction (log2)>
-0.143

$$$$
>  <ordered_residues>
HMIDSVFASYRQVALDDELWDKVRNGAVLPKVELFEVMDGPVLFTYQSKIVAMYEPHPTKAGYIKPRKMFL

>  <soluble fraction (log2)>
-1.18

$$$$
>  <ordered_residues>
HMETVRHFRLDWSQAADRLDKVLASLMNDVSRARIQEWIRLGAVSVNGEILTDVRAKVAGGDAIDVTPQTA

>  <soluble fraction (log2)>
-0.0893

$$$$
>  <ordered_residues>
HMPQEMIEILATPNGWLRVRQGPGTNYPEITKVNSGEEFPLLEEKDSWFKIRIEEGQEGWISSQYAQKEE

>  <soluble fraction (log2)>
-0.0402

$$$$
>  <ordered_residues>
HMVEAIDQALIEKQIQAVLQENSAAVKKYQAGKTEVLAFLIGQSMRKIAKKVDANLVKNILLEQLKNK

>  <soluble fraction (log2)>
0.0542

$$$$
>  <ordered_residues>
HMTLPQEPTVLPRPLRVGDTVHIRTLDKDAEVLALPDARGMVAVRAGIINTKVKLTDLTLVEEK

>  <soluble fraction (log2)>
0.179

$$$$
>  <ordered_residues>
HMDDKLKKLEEVFEMQEGTLTPDMRLDELEEWDSMTRLSLIVMMEDDYGKKVKRSEVMNYTTVQDIVDSME

>  <soluble fraction (log2)>
-0.5

$$$$
>  <ordered_residues>
HMPASTSIPYSDFISRVESGDVQEAKIGESAITGTYKDGSQFKTVKPPTLDTNLMPTLIQNKVNVVGVEP

>  <soluble fraction (log2)>
0.18

$$$$
>  <ordered_residues>
HMEMTEDEITKQFDAMEREAKKEIDTGADKRAFMYGVSRTAAGMAGKNPKYARFITDKAKEVIENIAKYK

>  <soluble fraction (log2)>
0.108

$$$$
>  <ordered_residues>
HMTPPAQQPHEGLPTDETATDAKTLVQKSRWWLEEEQRQREAGNTAYAERIRLALIQLLYRAERA

>  <soluble fraction (log2)>
0.0784

$$$$
>  <ordered_residues>
HMSRQDYLQTIYRLSVGKGYTTNKKIADFLSVSKPSVTEMIGKLQGEGLVAMDGAHIFLTEDGAEQ

>  <soluble fraction (log2)>
-0.567

$$$$
>  <ordered_residues>
HMTNADRYIGQEATVTEKISNELSTGAVRIGGLVWTARTVDNSEAEEGERVTVEAIEGAKLLVKRR

>  <soluble fraction (log2)>
-0.0108

$$$$
>  <ordered_residues>
HMTILTSSQRKALISKMIRQGGVESQSHLVKLLAREGVKVTQATASRDLEDLGATRVRDANGEFQYVIP

>  <soluble fraction (log2)>
-0.271

$$$$

###

assay_procedure: soluble fraction after stress (log2 fold change); higher = more stays soluble; pooled small domains, quantitative proteomics
condition_context: stress: 50 degC
# cutoff 0.008 applies to soluble fraction (log2); >= gives Fulfilled, < gives Not fulfilled

>  <ordered_residues>
HMPRPFPELTTREHDILALIARGWSNGRIADHLSLSGKTVSNYVSNILGKLQVTARAEAAERAREAGMGQ

>  <class_label>
Not fulfilled

$$$$
>  <ordered_residues>
HMYAGTWISESGQWKYRNDDGSFAKGWFQDLDSRWYYFDANGHMLSDTLTPDGYRLGEDGAWVND

>  <class_label>
Not fulfilled

$$$$
>  <ordered_residues>
HMKYEGEDEYYASLVTEKIAAIGTVTEESEDAIKEARAAYDALTSAQKKLVTNYDVLDEAEK

>  <class_label>
Fulfilled

$$$$
>  <ordered_residues>
HMKNMSLGERIKEQRKSSGLSQEKVAEFVGVSRQAVTKWETGQSAPSTENLFKLAEIFGTTVDILLA

>  <class_label>
Not fulfilled

$$$$
>  <ordered_residues>
HMIGHIGSAVMLNAKLRPRLPLLHVLALTQSLGERLSAAEAQPEVYRWSDPGQSRVIAEFEGGRLTRWRLE

>  <class_label>
Not fulfilled

$$$$
>  <ordered_residues>
HMPQPEIEIAAVVPYSAGALLSRIHDDGELLAPVEYRGEGVFVHARVPADIEAAMRRGGMLSPAET

>  <class_label>
Fulfilled

$$$$
>  <ordered_residues>
HMYELDIYPNPAIDKINVLLPSSTTLPVKVEIYDIMGKKVNSLLTTKKAFTIETDQFEKGIYFVKA

>  <class_label>
Fulfilled

$$$$
>  <ordered_residues>
HMKNYYELLGVAREASQDQIKKAYRKLARKYHPDVSKEADAETRMQELNVAYDTLSDAEKKREYDFQLDHP

>  <class_label>
Not fulfilled

$$$$

###

assay_procedure: soluble fraction after stress (log2 fold change); higher = more stays soluble; pooled small domains, quantitative proteomics
condition_context: stress: 50 degC
Quick rule for you: soluble fraction (log2) at 0.02 or higher means YES, lower means NO.

>  <ordered_residues>
HMKVTADVVVADRLKAWIISNNLKPGDRLPTEQKLSEELGVARHTLREGIKRLSQLGIIGSRTGSGMYVKN

>  <class_label>
YES

$$$$
>  <ordered_residues>
HMAWAVRAGEGVLIRAGQPGFSATTRGTALSNGAIGEGVRVRNLGSGKEIQAWVVDKGEVETR

>  <class_label>
NO

$$$$
>  <ordered_residues>
HMPSYYKELQNYSPENPVVKKRKVHPDVVNAIKYLAEITDGNPMLIKAYAQMILAHVFTTMPLIDKSV

>  <class_label>
NO

$$$$
>  <ordered_residues>
HMTVGENTYELIKKDIIFGVLPPLKKLKLQELKKIYNASVSTLREILSRLTGDGFVFSEEQKGFYVSPV

>  <class_label>
NO

$$$$
>  <ordered_residues>
HMINEEELLKIENIKRKYPDSKAALMPVLYFFQEKYGFISDDSIKEISQLLNISEVDIKGVVSFYEMFHEK

>  <class_label>
NO

$$$$
>  <ordered_residues>
HMSAPAKKPKIKVDLSKVHAGTIVRHKGYGLGQVKGIDGAIIVVTFDGVDKKFQFPGGFENGFLFLTED

>  <class_label>
NO

$$$$
>  <ordered_residues>
HMHEHWDGSGFPKHLRGANIPLGARVIAVADTYDSITSSRAYRAGSTHEAAEREMRRVSGTQLDPE

>  <class_label>
YES

$$$$
>  <ordered_residues>
HMVLGSSVAMGQKIGDSDLTWVEVPLSSAFDRFLSEPEWRGSSDLVAARLLEAGVFLTEDDVVE

>  <class_label>
YES

$$$$
